Biological target: T1, Kap104p (yeast (S. cerevisiae), UniProt P38217 1-918)
T1 construct: Kap104p, yeast homolog of Kapβ2; gene a gift from J. Aitchison, subcloned into pGEX-Tev; also called yeast Karyopherin β2 homolog; source: E. coli Rosetta(DE3)pLysS, purified (glutathione sepharose, TEV cleavage, anion exchange, gel filtration)
T1 sequence (looked up): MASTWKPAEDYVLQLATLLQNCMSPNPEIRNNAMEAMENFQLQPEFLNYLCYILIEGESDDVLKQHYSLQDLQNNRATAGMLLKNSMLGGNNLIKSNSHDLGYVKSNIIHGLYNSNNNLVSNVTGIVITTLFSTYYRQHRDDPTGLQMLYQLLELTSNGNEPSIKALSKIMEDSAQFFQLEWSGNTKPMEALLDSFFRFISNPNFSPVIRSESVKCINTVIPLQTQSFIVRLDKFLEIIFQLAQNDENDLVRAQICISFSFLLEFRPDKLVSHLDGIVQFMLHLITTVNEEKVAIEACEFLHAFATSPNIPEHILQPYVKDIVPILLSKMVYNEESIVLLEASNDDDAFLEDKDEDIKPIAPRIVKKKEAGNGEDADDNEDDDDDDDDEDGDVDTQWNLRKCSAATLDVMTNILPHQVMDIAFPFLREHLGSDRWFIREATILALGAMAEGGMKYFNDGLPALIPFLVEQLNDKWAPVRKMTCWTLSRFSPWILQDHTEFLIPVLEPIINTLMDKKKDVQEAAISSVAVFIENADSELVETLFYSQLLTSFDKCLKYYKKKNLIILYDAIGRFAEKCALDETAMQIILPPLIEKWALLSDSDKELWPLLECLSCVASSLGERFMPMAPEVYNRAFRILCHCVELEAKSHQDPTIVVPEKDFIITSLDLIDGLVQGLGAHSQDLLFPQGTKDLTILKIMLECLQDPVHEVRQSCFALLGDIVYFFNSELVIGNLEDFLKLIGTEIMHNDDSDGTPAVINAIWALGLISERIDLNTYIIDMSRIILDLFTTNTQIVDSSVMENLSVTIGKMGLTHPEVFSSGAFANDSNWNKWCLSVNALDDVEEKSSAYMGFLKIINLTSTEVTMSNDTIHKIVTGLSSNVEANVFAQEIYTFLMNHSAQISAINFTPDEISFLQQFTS
Assay: ITC; 90–350 μM MBP-NLS titrated into 9–35 μM Kap104p in the cell; 20 °C; 20 mM Tris pH 7.5, 100 mM NaCl, 2 mM β-mercaptoethanol, 10% glycerol; 35 injections of 8 μl; single-site model
Conditions: both partners purified
pKd: −log10 of the molar value. Where no end group is shown, it is not given here. MBP = not defined here
Assign class by pKd: not lower than 6 means criterion met; lower than 6 means criterion not met.

INSERT INTO assay_data (binder, assignedcategory) VALUES
  ('MBP–Nab2p NLS 238PL239/AA (domain or fragment, S. cerevisiae, UniProt P32505 201-251, looked up, Nab2p NLS, residues 201-251; source: E. coli BL21(DE3), purified (amylose resin, cation exchange)) DNSQRFTQRGGGAVGKNRRGGRGGNRGGRNNNSTRFNAAAKALGMAGESNM', 'criterion met'),
  ('MBP–Nab2p NLS 238PL239/PY (domain or fragment, S. cerevisiae, UniProt P32505 201-251, looked up, reading uncertain, Nab2p NLS, residues 201-251; also called L239Y; source: E. coli BL21(DE3), purified (amylose resin, cation exchange)) {MBP}-DNSQRFTQRGGGAVGKNRRGGRGGNRGGRNNNSTRFNPYAKALGMAGESNM', 'criterion met'),
  ('RDRNDRDRDYNHRSGGNHRRNGRGGRGGYNRRNNGYHPMNR (domain or fragment, S. cerevisiae, UniProt Q99383 494-534, looked up, Hrp1p NLS, residues 494-534; source: E. coli BL21(DE3), purified (amylose resin, cation exchange)) [MBP–Hrp1p NLS Y532M]', 'criterion not met'),
  ('MBP–Nab2p NLS (domain or fragment, S. cerevisiae, UniProt P32505 201-251, looked up, Nab2p NLS, residues 201-251 (methods; the results say 201-250); also called Nab2p NLS wild type; source: E. coli BL21(DE3), purified (amylose resin, cation exchange)) DNSQRFTQRGGGAVGKNRRGGRGGNRGGRNNNSTRFNPLAKALGMAGESNM', 'criterion met'),
  ('MBP–Nab2p NLS R235A, 238PL239/AA (domain or fragment, S. cerevisiae, UniProt P32505 201-251, looked up, Nab2p NLS, residues 201-251; source: E. coli BL21(DE3), purified (amylose resin, cation exchange)) DNSQRFTQRGGGAVGKNRRGGRGGNRGGRNNNSTAFNAAAKALGMAGESNM', 'criterion met'),
  ('MBP–Nab2p NLS R218, R219, R222, R226, R229/AAAAA (domain or fragment, S. cerevisiae, UniProt P32505 201-251, looked up, Nab2p NLS, residues 201-251; also called pentamutant; source: E. coli BL21(DE3), purified (amylose resin, cation exchange)) DNSQRFTQRGGGAVGKNAAGGAGGNAGGANNNSTRFNPLAKALGMAGESNM', 'criterion not met'),
  ('RDRNDRDRDYNHRSGGNHRRNGRGGRGGYNRRNNGYHPYNR (domain or fragment, S. cerevisiae, UniProt Q99383 494-534, looked up, Hrp1p NLS, residues 494-534; also called Hrp1p NLS wild type; source: E. coli BL21(DE3), purified (amylose resin, cation exchange)) [MBP–Hrp1p NLS]', 'criterion met'),
  ('{MBP}-RDRNDRDRDYNHRSGGNHRRNGRGGRGGYNRRNNGYHAANR (domain or fragment, S. cerevisiae, UniProt Q99383 494-534, looked up, reading uncertain, Hrp1p NLS, residues 494-534; source: E. coli BL21(DE3), purified (amylose resin, cation exchange)) [MBP–Hrp1p NLS 531PY532/AA]', 'criterion not met'),
  ('MBP–Nab2p NLS R222A, 238PL239/AA (domain or fragment, S. cerevisiae, UniProt P32505 201-251, looked up, Nab2p NLS, residues 201-251; source: E. coli BL21(DE3), purified (amylose resin, cation exchange)) DNSQRFTQRGGGAVGKNRRGGAGGNRGGRNNNSTRFNAAAKALGMAGESNM', 'criterion met');
